# System: COLO 205 colon
# method.summary: NCI-60 one-dose screen, 48 h
# conditions: 10 µM unless noted
# Procedure: Cells are grown in 96 well plates and exposed to the test compound for 48 hours. Compounds are tested at a single concentration, which is 10^-5 M for most compounds. The reported endpoint is percent growth (GI% or GIPRCNT), where numbers from 0 - 100% represent growth inhibition, and numbers from -100% - 0 represent cell death. For example, a value of 40 represents 60% growth inhibition. A value of 0 means no net growth occurred over the course of the experiment. […]
About 83,000 compounds went through this panel and 20% of them were active in at least one assay; those are over-represented in the sample as a whole. Active and inactive are the calls of the source. How the source made its calls: active means growth percent below 10; inactive means the rest.
Assign a class; possible classes are active, inactive

// below: answered molecules
{"molecule": "CNc1ccc(Br)cc1-c1n[nH]c(=O)[nH]c1=O", "study.system": "COLO 205 colon", "label": "inactive"}
{"molecule": "COc1cc(-c2nc(Nc3nc4ccccc4[nH]3)nc(N)c2C#N)cc(OC)c1OC", "study.system": "COLO 205 colon", "label": "inactive"}
{"molecule": "COc1cc(-c2nc3ccccc3o2)cc(CN2CCN(c3ccccc3)CC2)c1O", "study.system": "COLO 205 colon", "label": "inactive"}
{"molecule": "CSc1ccc(OC(C)=O)cc1C", "study.system": "COLO 205 colon", "label": "inactive"}
{"molecule": "Cc1ccc(S(=O)(=O)N(c2ccc(Cl)cc2)c2ccc(Br)cc2C(=O)O)cc1", "study.system": "COLO 205 colon", "label": "inactive"}
{"molecule": "CS(=O)(=O)Nc1cccc(C(=O)NCc2ccc(N3CCOCC3)cc2)c1", "study.system": "COLO 205 colon", "label": "inactive"}
{"molecule": "CC1CCCCN1S(=O)(=O)c1ccc(CN=C=S)cc1 (configuration not stated)", "study.system": "COLO 205 colon", "label": "inactive"}
{"molecule": "CN([N-]C(=O)CC(=O)[N-]N(C)C(=S)c1ccccc1)C(=S)c1ccccc1.[Cu+2]", "study.system": "COLO 205 colon", "label": "active"}

Per the assay record, what outcome was assigned to CCOC(=O)c1sc(NC(=O)CN2CCC(Cc3ccccc3)CC2)nc1C ?
inactive
